# Measurement target: Cytochrome P450 2C9 (Homo sapiens, UniProt P11712)
# Sequence (P11712 whole entry): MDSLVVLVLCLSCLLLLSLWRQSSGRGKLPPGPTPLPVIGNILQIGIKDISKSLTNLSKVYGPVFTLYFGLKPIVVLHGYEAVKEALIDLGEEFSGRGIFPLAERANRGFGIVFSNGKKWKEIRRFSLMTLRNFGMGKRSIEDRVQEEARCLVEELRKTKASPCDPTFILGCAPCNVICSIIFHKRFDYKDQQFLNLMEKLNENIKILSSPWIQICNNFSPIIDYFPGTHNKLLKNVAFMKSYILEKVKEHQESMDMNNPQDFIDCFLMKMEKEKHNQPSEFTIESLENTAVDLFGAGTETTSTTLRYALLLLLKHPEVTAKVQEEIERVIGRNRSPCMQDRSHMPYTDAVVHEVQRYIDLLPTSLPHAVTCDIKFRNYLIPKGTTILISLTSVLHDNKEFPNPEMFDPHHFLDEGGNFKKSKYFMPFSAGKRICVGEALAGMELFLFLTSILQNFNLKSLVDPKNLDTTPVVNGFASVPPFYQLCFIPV
pIC50: −log10 of the molar value.
Measurement name: pIC50

>>> obs_value("Cc1c(F)cccc1[C@H]1COC(N)=N1")
"< 4.30"

# query: pIC50 of entry `CC[C@@H](C[C@H]1COC(N)=N1)c1ccccc1`
< 4.30

###

# Measurement target: hERG (KCNH2) (Homo sapiens)
# Sequence (Q12809 whole entry): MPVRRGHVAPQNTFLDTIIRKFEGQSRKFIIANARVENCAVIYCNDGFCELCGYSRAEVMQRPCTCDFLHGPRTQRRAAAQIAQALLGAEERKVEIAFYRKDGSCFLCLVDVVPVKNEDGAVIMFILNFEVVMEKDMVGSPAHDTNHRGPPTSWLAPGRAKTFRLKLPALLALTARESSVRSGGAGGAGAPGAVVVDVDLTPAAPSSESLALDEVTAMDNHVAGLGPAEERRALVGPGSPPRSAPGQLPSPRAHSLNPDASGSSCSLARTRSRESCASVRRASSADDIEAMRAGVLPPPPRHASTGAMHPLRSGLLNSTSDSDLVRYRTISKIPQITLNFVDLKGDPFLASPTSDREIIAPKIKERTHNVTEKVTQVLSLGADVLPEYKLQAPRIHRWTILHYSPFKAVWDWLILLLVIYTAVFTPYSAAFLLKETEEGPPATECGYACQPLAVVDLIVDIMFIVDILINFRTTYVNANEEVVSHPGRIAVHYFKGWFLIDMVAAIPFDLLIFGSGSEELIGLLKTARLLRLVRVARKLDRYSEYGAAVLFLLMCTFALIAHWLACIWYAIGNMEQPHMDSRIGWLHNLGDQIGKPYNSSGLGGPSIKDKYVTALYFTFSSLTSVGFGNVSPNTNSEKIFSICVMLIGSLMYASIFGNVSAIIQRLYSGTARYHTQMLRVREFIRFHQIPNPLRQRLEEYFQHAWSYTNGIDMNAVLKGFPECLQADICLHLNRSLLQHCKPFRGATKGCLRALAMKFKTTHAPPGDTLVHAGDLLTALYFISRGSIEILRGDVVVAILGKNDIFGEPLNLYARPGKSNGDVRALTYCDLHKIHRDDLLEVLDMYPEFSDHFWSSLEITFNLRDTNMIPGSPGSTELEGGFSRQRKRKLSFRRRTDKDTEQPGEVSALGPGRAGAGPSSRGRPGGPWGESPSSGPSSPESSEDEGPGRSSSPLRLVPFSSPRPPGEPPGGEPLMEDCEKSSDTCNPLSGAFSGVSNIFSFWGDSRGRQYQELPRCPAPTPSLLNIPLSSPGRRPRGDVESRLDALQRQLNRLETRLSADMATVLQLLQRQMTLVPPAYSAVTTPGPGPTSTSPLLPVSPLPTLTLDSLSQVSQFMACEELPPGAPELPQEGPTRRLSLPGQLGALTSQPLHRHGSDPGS
# Test: Inhibition of human ERG
Measurement name: IC20 (µM)
The answer is to be given in µM; state only the numeric part.

>>> obs_value("CC[C@@H](C[C@H]1COC(N)=N1)c1ccccc1")
9.2

Next compound, please.
# query: IC20 of entry `Cc1c(F)cccc1[C@H]1COC(N)=N1`
10
